assay.details: self-splicing fitness, log relative to wild type (ln ratio); higher = more splicing; Tetrahymena group I intron in knt gene, E. coli kanamycin selection, DiMSum; sequences stand for … in CUCUCU…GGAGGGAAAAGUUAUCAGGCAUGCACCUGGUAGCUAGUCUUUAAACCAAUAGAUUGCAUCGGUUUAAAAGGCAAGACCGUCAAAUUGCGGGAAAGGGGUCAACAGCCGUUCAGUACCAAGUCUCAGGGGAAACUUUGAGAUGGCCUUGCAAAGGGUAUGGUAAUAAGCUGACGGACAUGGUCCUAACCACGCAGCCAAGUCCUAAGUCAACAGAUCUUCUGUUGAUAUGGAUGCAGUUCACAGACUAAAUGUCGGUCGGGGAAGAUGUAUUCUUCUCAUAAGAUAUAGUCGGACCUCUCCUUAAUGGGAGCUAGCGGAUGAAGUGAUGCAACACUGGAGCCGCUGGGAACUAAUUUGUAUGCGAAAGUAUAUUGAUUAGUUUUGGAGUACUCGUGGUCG;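 also: selection with 25 µg/mL kanamycin versus none on LB agar overnight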
condition.summary: 37 °C
Below: a set of entries, each annotated with reported self-splicing fitness (ln).
reported.endpoint: self-splicing fitness (ln)

In [3]: df
Out[3]:
                    seq  result
0  CAGUAGCAAUAUUACGGACG   0.702
1  CUUAAGCAAUAUUACGAAGG   -1.54
2  CCAAAGCAAUAUUACGACUA    -2.7

====

assay.details: self-splicing fitness, log relative to wild type (ln ratio); higher = more splicing; Tetrahymena group I intron in knt gene, E. coli kanamycin selection, DiMSum; sequences stand for … in CUCUCU…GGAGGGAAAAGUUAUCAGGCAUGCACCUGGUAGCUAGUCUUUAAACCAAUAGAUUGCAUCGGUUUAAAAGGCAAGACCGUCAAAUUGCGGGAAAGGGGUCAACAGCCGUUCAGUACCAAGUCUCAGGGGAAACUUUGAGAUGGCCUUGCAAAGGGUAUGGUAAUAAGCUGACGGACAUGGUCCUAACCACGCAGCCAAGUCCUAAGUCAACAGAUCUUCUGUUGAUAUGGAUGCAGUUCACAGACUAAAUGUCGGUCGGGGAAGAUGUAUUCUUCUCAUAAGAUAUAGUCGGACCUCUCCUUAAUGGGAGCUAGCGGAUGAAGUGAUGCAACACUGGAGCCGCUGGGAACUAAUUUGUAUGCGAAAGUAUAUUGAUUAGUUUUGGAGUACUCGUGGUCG
condition.summary: 30 °C
Below: a set of entries, each annotated with reported self-splicing fitness (ln).
reported.endpoint: self-splicing fitness (ln)

>>> print(df.to_string())
                     seq           reported_endpoint  number
 0  GAACAGCAAUAUUACGAAAU  self-splicing fitness (ln)   -1.67
 1  CUCGAGCAAUAUUACGGUUC  self-splicing fitness (ln)   -3.14
 2  GAUCAGCAAUAUUACGGAAC  self-splicing fitness (ln)  -0.655
 3  CUCUAGCAAUAUUACGCAUU  self-splicing fitness (ln)   -4.34
 4  UACUAGCAAUAUUACGGCAU  self-splicing fitness (ln)   -1.36
 5  GUAAAGCAAUAUUACGACAA  self-splicing fitness (ln)  -0.153
 6  CCGCAGCAAUAUUACGUGUG  self-splicing fitness (ln)   -3.24
 7  GAUUAGCAAUAUUACGCAGA  self-splicing fitness (ln)   -3.16
 8  UUAUAGCAAUAUUACGCCUA  self-splicing fitness (ln)   -1.55
 9  ACUGAGCAAUAUUACGGACA  self-splicing fitness (ln)    -2.8
10  GCGUAGCAAUAUUACGGCAG  self-splicing fitness (ln)   -3.83
11  GAAAAGCAAUAUUACGAAGU  self-splicing fitness (ln)   -2.98
12  GACUAGCAAUAUUACGACCU  self-splicing fitness (ln)   0.114
13  CAAUAGCAAUAUUACGCUGG  self-splicing fitness (ln)   -1.32
14  GGUUAGCAAUAUUACGUUGG  self-splicing fitness (ln)   -4.01
15  CCCAAGCAAUAUUACGUUCU  self-splicing fitness (ln)   -3.36
16  AACUAGCAAUAUUACGUGCG  self-splicing fitness (ln)  -0.832
17  GUGAAGCAAUAUUACGCGUU  self-splicing fitness (ln)   -3.59
18  GUACAGCAAUAUUACGAGGC  self-splicing fitness (ln)   -3.95
19  GAUAAGCAAUAUUACGGGUA  self-splicing fitness (ln)   -1.69
20  ACGGAGCAAUAUUACGUUCC  self-splicing fitness (ln)   -3.92
21  GAGAAGCAAUAUUACGUCUG  self-splicing fitness (ln)  -0.739
22  CCCGAGCAAUAUUACGCACU  self-splicing fitness (ln)   -2.78
23  CCCUAGCAAUAUUACGUUGU  self-splicing fitness (ln)   -3.84
24  UUAUAGCAAUAUUACGUUCA  self-splicing fitness (ln)  -0.931
25  UUCCAGCAAUAUUACGAAUU  self-splicing fitness (ln)   -3.98
26  UUUCAGCAAUAUUACGUACA  self-splicing fitness (ln)  -0.836
27  AGUCAGCAAUAUUACGGUUU  self-splicing fitness (ln)  -0.329
28  AUGUAGCAAUAUUACGUAAC  self-splicing fitness (ln)   -2.96
29  GCGGAGCAAUAUUACGCAUU  self-splicing fitness (ln)    -2.8

====

assay.details: self-splicing fitness, log relative to wild type (ln ratio); higher = more splicing; Tetrahymena group I intron in knt gene, E. coli kanamycin selection, DiMSum; sequences stand for … in CUCUCU…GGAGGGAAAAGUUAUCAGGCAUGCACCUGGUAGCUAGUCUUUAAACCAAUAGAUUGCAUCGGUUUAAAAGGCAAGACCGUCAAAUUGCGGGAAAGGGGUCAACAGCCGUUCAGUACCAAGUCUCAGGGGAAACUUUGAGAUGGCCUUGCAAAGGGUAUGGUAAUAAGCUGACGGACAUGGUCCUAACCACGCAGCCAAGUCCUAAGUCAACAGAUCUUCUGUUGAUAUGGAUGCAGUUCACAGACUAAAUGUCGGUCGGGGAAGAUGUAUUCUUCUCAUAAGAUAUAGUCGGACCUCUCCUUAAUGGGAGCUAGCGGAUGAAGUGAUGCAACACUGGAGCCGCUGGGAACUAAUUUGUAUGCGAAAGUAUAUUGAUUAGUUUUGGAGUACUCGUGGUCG
condition.summary: 30 °C
Categorized via self-splicing fitness (ln): low: < -3; mid: ≥ -3 and < -2; high: ≥ -2

                     seq  group
 0  UGCUAGCAAUAUUACGUAGU    low
 1  CGGCAGCAAUAUUACGCUAU    low
 2  CCCGAGCAAUAUUACGUCGA    low
 3  ACCCAGCAAUAUUACGGGCA   high
 4  ACAAAGCAAUAUUACGUUGC    low
 5  GAAAAGCAAUAUUACGGAGG    mid
 6  CCACAGCAAUAUUACGGUCG   high
 7  GCCGAGCAAUAUUACGAAAC    mid
 8  UAGGAGCAAUAUUACGCCCG   high
 9  UUCGAGCAAUAUUACGUUGA    mid
10  CCAGAGCAAUAUUACGUCUG    low
11  UGCGAGCAAUAUUACGAGUG    mid
12  ACCCAGCAAUAUUACGGUCA   high
13  AGAUAGCAAUAUUACGUGGC    low
14  UCGUAGCAAUAUUACGUCCC    mid
15  GUGGAGCAAUAUUACGCGUA    mid
16  AGGAAGCAAUAUUACGCAAG    low
17  CCAAAGCAAUAUUACGACUG   high
18  UACCAGCAAUAUUACGUCGG    mid
19  UACUAGCAAUAUUACGAACA   high
20  AGCGAGCAAUAUUACGUUUC    low
21  AAGUAGCAAUAUUACGCGAC    low
22  AUCAAGCAAUAUUACGAGCU   high
23  UGAUAGCAAUAUUACGGCUG   high
24  ACGAAGCAAUAUUACGCAGG   high
25  CGUAAGCAAUAUUACGACCC    mid
26  CAGCAGCAAUAUUACGCGCG   high
27  CAAGAGCAAUAUUACGUUUC    low
28  AGCGAGCAAUAUUACGAACC    mid
29  UGGCAGCAAUAUUACGAUAG    mid
30  UGGUAGCAAUAUUACGGCCA    mid
31  CCGCAGCAAUAUUACGUGCC    low
32  CAUAAGCAAUAUUACGGGGG    mid
33  AAUGAGCAAUAUUACGACGU   high
34  CGUGAGCAAUAUUACGUCAU    mid
35  ACAUAGCAAUAUUACGAUCA   high
36  UUGCAGCAAUAUUACGAUGU    low
37  CCCGAGCAAUAUUACGAUCA    mid
38  UGUCAGCAAUAUUACGAGAU    low
39  UUUAAGCAAUAUUACGUUAU    low
40  UUCCAGCAAUAUUACGUACA   high
